Assay: recombinant UMI read abundance after kanamycin selection (control-corrected) (log10(CPM+1)); higher = more efficient recombination; extreme values may be limits of the assay; sequences stand for … in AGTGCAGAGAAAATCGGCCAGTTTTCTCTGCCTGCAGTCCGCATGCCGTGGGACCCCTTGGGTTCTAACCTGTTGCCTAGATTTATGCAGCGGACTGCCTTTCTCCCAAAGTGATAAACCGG…AGGTTGGTTTCACT; site = the 11-nt donor;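 also: IS621 bridge recombinase in Escherichia coli cells against a fixed T5 target plasmid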
Give Y when the value for recombinant UMI read abundance (log10) is at least 0.05. Give N when it is less.

[[record]]
seq = "CCAATTGCATGGACCGGTTTTCCCGGTAATCCGTATTTGAG (site CCAATTGCTCT)"
assigned_category = "Y"

[[record]]
seq = "GTTTATTCATGGACCGGTTTTCCCGGTAATCCGTATTTGCT (site GTTTATTCTAG)"
assigned_category = "Y"

[[record]]
seq = "TGATCATCATGGACCGGTTTTCCCGGTAATCCGTATTTGCT (site AGATCATCTAG)"
assigned_category = "Y"

[[record]]
seq = "CGTTTGACATGGACCGGTTTTCCCGGTAATCCGTATTTGAG (site CGTTTGACTCT)"
assigned_category = "Y"

[[record]]
seq = "CTACTAGCATGGACCGGTTTTCCCGGTAATCCGTATTTGGA (site CTACTAGCTTC)"
assigned_category = "Y"

[[record]]
seq = "CAAGTATCATGGACCGGTTTTCCCGGTAATCCGTATTTGTC (site CAAGTATCTGA)"
assigned_category = "Y"

[[record]]
seq = "GCTTACCCATGGACCGGTTTTCCCGGTAATCCGTATTTGAT (site GCTTACCCTAT)"
assigned_category = "N"

[[record]]
seq = "TAGCTAGCATGGACCGGTTTTCCCGGTAATCCGTATTTGAA (site AAGCTAGCTTT)"
assigned_category = "N"

[[record]]
seq = "GACTAACCATGGACCGGTTTTCCCGGTAATCCGTATTTGGT (site GACGAACCTAC)"
assigned_category = "N"

[[record]]
seq = "CGATGATCATGGACCGGTTTTCCCGGTAATCCGTATTTGAT (site CGATCATCTAG)"
assigned_category = "N"

[[record]]
seq = "GCGATACCATGGACCGGTTTTCCCGGTAATCCGTATTTGAT (site GCGATACCTAT)"
assigned_category = "N"

[[record]]
seq = "CTCGGGCCATGGACCGGTTTTCCCGGTAATCCGTATTTGAG (site CTCGGGCCTCT)"
assigned_category = "N"

[[record]]
seq = "AAGCGCGCATGGACCGGTTTTCCCGGTAATCCGTATTTGGG (site AAGCTCGCTCC)"
assigned_category = "N"

[[record]]
seq = "TCAGATACATGGACCGGTTTTCCCGGTAATCCGTATTTGGC (site TCAGATACTGC)"
assigned_category = "N"

[[record]]
seq = "GGCCACCCATGGACCGGTTTTCCCGGTAATCCGTATTTGTT (site GGCCACCCTAG)"
assigned_category = "N"

[[record]]
seq = "TCTGTGGCATGGACCGGTTTTCCCGGTAATCCGTATTTGCC (site TCTGTGGCTGG)"
assigned_category = "N"

[[record]]
seq = "GTGTGCACATGGACCGGTTTTCCCGGTAATCCGTATTTGTA (site GTATGCACTTA)"
assigned_category = "Y"

[[record]]
seq = "CCTACTGCATGGACCGGTTTTCCCGGTAATCCGTATTTGCC (site ACTACTGCTGG)"
assigned_category = "N"

